Target or system bovine cerebral TPK1 (Bos taurus, UniProt A0A3Q1MT31); recorded quantity pIC50.
// scale note: pIC50 = -log10(conc_M); give the bare number

As a guide, the following entries are already answered.
compound | pIC50
Cn1c(N2CCC(C(=O)c3ccc(Cl)s3)CC2)nc(-c2ccncc2)cc1=O | 7.96
COc1cccc(C(=O)C2CCN(c3nc(-c4ccncc4)cc(=O)n3C)CC2)c1OC | 7.96
Cn1c(N2CCOC(c3ccc(N4CCCC4)cc3)C2)nc(-c2ccncc2)cc1=O (centres unmarked) | 8.10

QUERY: // fetch bovine cerebral TPK1 (Bos taurus, UniProt A0A3Q1MT31) pIC50 for `Cn1c(N2CCC(C(=O)c3ccc(F)cc3F)CC2)nc(-c2ccncc2)cc1=O`
RESULT: 7.72

QUERY: // fetch bovine cerebral TPK1 (Bos taurus, UniProt A0A3Q1MT31) pIC50 for `Cn1c(N2CCO[C@@H](c3ccccc3F)C2)nc(-c2ccncc2)cc1=O`
RESULT: 8.32

QUERY: // fetch bovine cerebral TPK1 (Bos taurus, UniProt A0A3Q1MT31) pIC50 for `Cn1c(N2CCC(C(=O)n3ccc4ccccc43)CC2)nc(-c2ccncc2)cc1=O`
RESULT: 8.00

QUERY: // fetch bovine cerebral TPK1 (Bos taurus, UniProt A0A3Q1MT31) pIC50 for `Cn1c(N2CCC(C(=O)c3ccccc3)CC2)nc(-c2ccncc2)cc1=O`
RESULT: 8.05

QUERY: // fetch bovine cerebral TPK1 (Bos taurus, UniProt A0A3Q1MT31) pIC50 for Cn1c(N2CCOC(c3ccc(F)cc3Cl)C2)nc(-c2ccncc2)cc1=O (centres unmarked)
RESULT: 7.82

QUERY: // fetch bovine cerebral TPK1 (Bos taurus, UniProt A0A3Q1MT31) pIC50 for Cn1c(N2CCOC(CCc3ccccc3)C2)nc(-c2ccncc2)cc1=O (centres unmarked)
RESULT: 8.22

QUERY: // fetch bovine cerebral TPK1 (Bos taurus, UniProt A0A3Q1MT31) pIC50 for Cn1c(N2CCOC(c3ccccc3Br)C2)nc(-c2ccncc2)cc1=O (centres unmarked)
RESULT: 8.40

QUERY: // fetch bovine cerebral TPK1 (Bos taurus, UniProt A0A3Q1MT31) pIC50 for `Cn1c(N2CCO[C@@H](c3c(Cl)cccc3Cl)C2)nc(-c2ccncc2)cc1=O`
RESULT: 8.85
